Values were extracted from ChEMBL document CHEMBL4334507.

System: MDA-MB-436
Experiment: Antiproliferative activity against human MDA-MB-436 cells assessed as reduction in cell viability incubated for 72 hrs by MTT assay
Type: functional, cell-based
Conditions: MDA-MB-436, 72 h
measurement.kind: IC50 (nM)

The following compounds have reported results that may help.
> print(dat)
                                 cpd.smiles    val
1  O=C(Cc1ccccc1)Nc1nnc(CCSCCc2nnc(NC(=O)Cc3ccccc3)s2)s1   2400
2  Cc1ccc(Cn2cc(CCC(=O)Nc3ccc(CCCCc4nnc(NC(=O)Cc5ccccn5)s4)nn3)nn2)c(C)c1    200
3  Cc1ccc(Cn2cc(CCC(=O)Nc3nnc(CCCCc4nnc(NC(=O)Cc5ccccc5)s4)s3)nn2)c(C)c1    430
4  O=C(CCc1cn(Cc2ccc([N+](=O)[O-])cc2)nn1)Nc1nnc(CCCCc2nnc(NC(=O)Cc3ccccc3)s2)s1  10700
5  O=C(CCc1cn(Cc2ccccc2)nn1)Nc1nnc(CCCCc2nnc(NC(=O)Cc3ccccc3)s2)s1   1160
6  Cc1ccc(Cn2cc(CCC(=O)Nc3ccc(CCCCc4nnc(NC(=O)Cc5ccccn5)s4)nn3)nn2)cc1    180

(1) Cc1ccc(Cn2cc(CCC(=O)Nc3nnc(CCCCc4nnc(NC(=O)Cc5ccccc5)s4)s3)nn2)cc1
(2) O=C(Cc1cccc(OC(F)(F)F)c1)Nc1ccc(CCCCc2nnc(NC(=O)Cc3ccccn3)s2)nn1
Query: Smaller IC50 value, 1 vs 2 ? In your reply, give the label of the chosen option.
Result: 2

(I) O=C(CCc1cn(Cc2ccc(F)cc2)nn1)Nc1nnc(CCCCc2nnc(NC(=O)Cc3ccccc3)s2)s1
(II) COc1ccc(Cn2cc(CCC(=O)Nc3nnc(CCCCc4nnc(NC(=O)Cc5ccccc5)s4)s3)nn2)cc1
Query: So which one has the bigger IC50 here, I or II ? In your reply, give the label of the chosen option.
Result: II

----------
System: HCT-116
Assay: Antiproliferative activity against human HCT116 cells assessed as reduction in cell viability incubated for 72 hrs by MTT assay
Assay type: functional, cell-based
Conditions: HCT-116, 72 h
measurement.kind: IC50 (nM)

> print(dat)
                                 cpd.smiles  assayed.system  measurement.kind  unit.name   val
1  Cc1ccc(Cn2cc(CCC(=O)Nc3ccc(CCCCc4nnc(NC(=O)Cc5ccccn5)s4)nn3)nn2)cc1         HCT-116              IC50         nM   150
2  O=C(Cc1ccccc1)Nc1nnc(CCSCCc2nnc(NC(=O)Cc3ccccc3)s2)s1         HCT-116              IC50         nM  1020
3  Cc1cccc(C)c1Cn1cc(CCC(=O)Nc2nnc(CCCCc3nnc(NC(=O)Cc4ccccc4)s3)s2)nn1         HCT-116              IC50         nM   740

(1) Cc1ccc(Cn2cc(CCC(=O)Nc3nnc(CCCCc4nnc(NC(=O)Cc5ccccc5)s4)s3)nn2)c(C)c1
(2) O=C(CCc1cn(Cc2ccc(Cl)cc2)nn1)Nc1nnc(CCCCc2nnc(NC(=O)Cc3ccccc3)s2)s1
(3) O=C(CCc1cn(Cc2ccc(OC(F)(F)F)cc2)nn1)Nc1ccc(CCCCc2nnc(NC(=O)Cc3ccccn3)s2)nn1
(4) O=C(CCc1cn(Cc2ccc(Br)cc2)nn1)Nc1nnc(CCCCc2nnc(NC(=O)Cc3ccccc3)s2)s1
Query: Arrange the 4 entries by IC50 so the values rise. Use the labels to give the ranking in the order requested.
Result: 3, 1, 4, 2
